# credit: patent US4076725A

# Test system: reverse transcriptase (RNA-directed DNA polymerase)
# protocolDetails: Reverse transcriptase (RNA-directed DNA polymerase) inhibition
# Type: biochemical
# statedConditions: concentration not given
measureName: % inhibition (%)
Numbers only, in %.

Sample records with % inhibition:
COC(=O)C1C(OC(C)=O)C(C)C(OC(C)=O)OC1C(C)C(OC(C)=O)C(C)C=CC=C(C)C(=O)Nc1c(C)c(OC(C)=O)c2c(c1O)C(=O)C(C)=C1OCOC(C(C)=CC(C)=O)=C12 (stereo not shown) [Streptoval C Triacetate-A] :: 86.2
COC(=O)C(C(OC(C)=O)C(C)C=O)C(OC(C)=O)C(C)C(OC(C)=O)C(C)C=CC=C(C)C(=O)Nc1c(C)c(OC(C)=O)c2c(c1O)C(=O)C(C)=C1OCOC(C(C)=CC(C)=O)=C12 (stereo not shown) [Streptoval C Triacetate-B] :: 97.3
COC(=O)C1C(O)C(C)C(O)OC1C(C)C(=O)C(C)C=CC=C(C)C(=O)Nc1c(C)c(OC(C)=O)c2c(c1O)C(=O)C(C)=C1OCOC(C(C)=CC(C)=O)=C12 (stereo not shown) :: 95.7

From here, focus on the item given below.
For reference, reported % inhibition for COC(=O)C1C(OC(C)=O)C(C)C(O)OC1C(C)C(O)C(C)C=CC=C(C)C(=O)Nc1c(C)c(OC(C)=O)c2c(c1O)C(=O)C(C)=C1OCOC(C(C)=CC(C)=O)=C12 (stereo not shown) stands at 99.0
